Assay: Cell viability by CCK-8 method
Assay type: cell-based, human
Details: human, HepG2 cells
endpoint-label: viability at 24 h, 10 µM (%)
Just the number in %, nothing appended.

compound | unit-tag | viability at 24 h, 10 µM
C[C@@H]1O[C@@H](O[C@H]2[C@H](O[C@H]3CC[C@@]4(C)[C@@H](CC[C@]5(C)[C@@H]4CC=C4[C@@H]6CC(C)(C)CC[C@]6(C(=O)O)CC[C@]45C)[C@]3(C)CO)OC[C@H](O)[C@@H]2O)[C@H](O)[C@H](O)[C@H]1O | % | 98.6

Let us examine a further case.
Could you share which viability at 24 h, 10 µM value was measured for CC(C)=CCCC(C)(O)C(O)CCC(C)CCO (centres unmarked) ?
94.8

----------
Tested on: HepG2 cells
Experiment: Cell viability by CCK-8 method
Assay type: cell-based, human
Settings: Homo sapiens, HepG2, 24 h, read-out: IC50 (cell viability)
endpoint-label: pIC50
Please treat pIC50 as minus the base-10 logarithm of the molar concentration.

What value of measured pIC50 is listed for CC(C)=CCCC(C)(O)C(O)CCC(C)CCO (centres unmarked) [Compound 3] ?
4.47

----------
Assay: Cell viability by CCK-8 method
Format: cell-based, human
Conditions: human, HepG2 cells
endpoint-label: viability at 24 h, 20 µM

compound | viability at 24 h, 20 µM
CC(C)=CCCC(C)(O)C(O)CCC(C)CCO (centres unmarked) | 83.5%

We next turn to a different compound, shown below.
What measured viability at 24 h, 20 µM goes with `C[C@@H]1O[C@@H](O[C@H]2[C@H](O[C@H]3CC[C@@]4(C)[C@@H](CC[C@]5(C)[C@@H]4CC=C4[C@@H]6CC(C)(C)CC[C@]6(C(=O)O)CC[C@]45C)[C@]3(C)CO)OC[C@H](O)[C@@H]2O)[C@H](O)[C@H](O)[C@H]1O` ?
93.4%

# credit: paper PMC9254149
